biological target: T1, Anti-CD28 Fab (SEQ ID NOs: 696, 697); assay: phage ELISA on captured anti-CD28 Fab; competitor: CD28 antigen pre-incubated on the Fab
T1 construct: In the phage ELISA the Fab was biotinylated and captured on neutravidin coated plates
T1 sequence (VH, as listed by the source, chain 1 of 2): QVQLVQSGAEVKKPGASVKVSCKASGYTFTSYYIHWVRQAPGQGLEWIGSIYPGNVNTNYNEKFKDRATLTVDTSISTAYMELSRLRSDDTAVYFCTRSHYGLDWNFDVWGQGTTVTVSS
T1 sequence (VL, as listed by the source, chain 2 of 2): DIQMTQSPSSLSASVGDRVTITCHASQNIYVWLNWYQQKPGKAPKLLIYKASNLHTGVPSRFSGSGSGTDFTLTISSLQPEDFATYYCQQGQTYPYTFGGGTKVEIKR
Simple rule here: Anti-CD28 Fab signal in the presence of CD28 (phage binding ELISA) less than 0.06 is YES, otherwise NO.

[[record]]
binder = "YCEGHMWEYMAKCL [Phage-935]"
class_assignment = "NO"

[[record]]
binder = "YCDGHDVEYMSKCL [Phage-936]"
class_assignment = "YES"

[[record]]
binder = "YCEGHSSEYMWKCL [Phage-940]"
class_assignment = "NO"

[[record]]
binder = "YCEGHSWVYMAKCL [Phage-943]"
class_assignment = "NO"

